meta.source: patent US20080057086A1

ASSAY: Caco 2 monolayer permeability of 5-azacytidine with and without excipients
Type: in vitro ADME
STUDY_CONDITIONS: human, Caco-2, pH 7.4, with Sodium Laurate 0.05%
MEASURED_QUANTITY: Papp at 1000 micromolar (×10⁻⁶ cm/s)
Give the number; ×10⁻⁶ cm/s is assumed, so skip it.

Req: Looking for the measured Papp at 1000 micromolar of Nc1ncn([C@@H]2O[C@H](CO)[C@@H](O)[C@H]2O)c(=O)n1 , can you help?
Resp: 0.17

###

ASSAY: Clinical study of single oral doses of 5-azacytidine (oral formulation of Example 3): PK, bioavailability, safety
Format: in vivo, human
STUDY_CONDITIONS: human, plasma, po, 80 mg, Mean of 80 mg dose group (n=3); single oral dose (Example 3 tablets); 1.0 h; read-out: Mean plasma concentration
MEASURED_QUANTITY: concentration at 1 h (ng/mL)
Give the number; ng/mL is assumed, so skip it.

Req: Looking for the measured concentration at 1 h of Nc1ncn([C@@H]2O[C@H](CO)[C@@H](O)[C@H]2O)c(=O)n1 [5-azacytidine] , can you help?
Resp: 46.6

###

ASSAY: Clinical study of single oral doses of 5-azacytidine (oral formulation of Example 3): PK, bioavailability, safety
Assay type: in vivo, human
STUDY_CONDITIONS: human, plasma, po, 80 mg, Subject 102; 80 mg single oral dose (Example 3 tablets); 0 h; read-out: Plasma concentration
MEASURED_QUANTITY: concentration at 0 h
Record the result as a number with its unit.

Req: Looking for the measured concentration at 0 h of Nc1ncn([C@@H]2O[C@H](CO)[C@@H](O)[C@H]2O)c(=O)n1 , can you help?
Resp: 0 ng/mL

###

ASSAY: Clinical study of single oral doses of 5-azacytidine (oral formulation of Example 3): PK, bioavailability, safety
Type: in vivo, human
STUDY_CONDITIONS: human, plasma, po, 80 mg, Subject 201; 80 mg single oral dose (Example 3 tablets)
MEASURED_QUANTITY: half-life (min)
Give the number; min is assumed, so skip it.

Req: Looking for the measured half-life of Nc1ncn([C@@H]2O[C@H](CO)[C@@H](O)[C@H]2O)c(=O)n1 [5-azacytidine] , can you help?
Resp: 25

###

ASSAY: Clinical study of single oral doses of 5-azacytidine (oral formulation of Example 3): PK, bioavailability, safety
Type: in vivo, human
STUDY_CONDITIONS: human, plasma, po, 60 mg, Subject 101; 60 mg single oral dose (Example 3 tablets)
MEASURED_QUANTITY: AUC(0-inf) (ng·h/mL)
Give the number; ng·h/mL is assumed, so skip it.

Req: Looking for the measured AUC(0-inf) of Nc1ncn([C@@H]2O[C@H](CO)[C@@H](O)[C@H]2O)c(=O)n1 , can you help?
Resp: 22.6

###

ASSAY: Clinical study of single oral doses of 5-azacytidine (oral formulation of Example 3): PK, bioavailability, safety
Assay type: in vivo, human
STUDY_CONDITIONS: human, plasma, po, 60 mg, Subject 101; 60 mg single oral dose (Example 3 tablets); 2.0 h; read-out: Plasma concentration
Method: The study was a multicenter, open-label, single treatment study. Patients were treated with escalating doses, in 20 mg increments, up to 200 mg. The study assessed the safety and tolerability of escalating doses, provided pilot information on the oral bioavailability of the study drug, and provided information on the single dose pharmacokinetics of the study drug after oral administration. Multicenter, open-label, single-treatment, escalating-dose PK study. […]
MEASURED_QUANTITY: concentration at 2 h (ng/mL)
Give the number; ng/mL is assumed, so skip it.

Req: Looking for the measured concentration at 2 h of Nc1ncn([C@@H]2O[C@H](CO)[C@@H](O)[C@H]2O)c(=O)n1 [5-azacytidine] , can you help?
Resp: 3.75
